# tgt: MBP-FUS (human, UniProt P35637 1-526)
# Sequence (P35637 whole entry): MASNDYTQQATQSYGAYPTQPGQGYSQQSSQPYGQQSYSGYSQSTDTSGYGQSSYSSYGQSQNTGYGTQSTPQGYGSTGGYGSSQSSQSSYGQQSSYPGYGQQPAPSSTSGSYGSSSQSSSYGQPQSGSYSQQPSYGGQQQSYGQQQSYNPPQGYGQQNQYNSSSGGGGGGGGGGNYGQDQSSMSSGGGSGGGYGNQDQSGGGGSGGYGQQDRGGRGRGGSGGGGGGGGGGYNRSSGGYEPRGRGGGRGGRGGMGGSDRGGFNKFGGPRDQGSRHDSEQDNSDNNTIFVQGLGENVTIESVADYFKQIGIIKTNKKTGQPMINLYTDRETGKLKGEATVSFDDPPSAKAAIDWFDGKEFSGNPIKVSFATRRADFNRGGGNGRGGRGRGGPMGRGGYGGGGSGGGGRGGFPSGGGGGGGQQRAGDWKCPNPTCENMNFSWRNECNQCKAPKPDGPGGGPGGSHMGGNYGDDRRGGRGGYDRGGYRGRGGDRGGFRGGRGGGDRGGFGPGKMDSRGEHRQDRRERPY
# experiment_summary: EMSA; EMSA: 50 mM Tris-HCl pH 7.4, 150 mM KCl, 2 mM MgCl2, 2 mM DTT, 0.1 mg/ml yeast tRNA, 0.1 mg/ml BSA, room temperature, 30 min, trace 32P-RNA
# settings: protein: recombinant; tags: N-terminal His6-MBP (not cleaved)
observation_type: Kd (nM)
The reply should be a number in nM, with the unit left off.

q: Tell me measured Kd for UUGUAUUUUGAGCUAGUUUGGUGAC (ssRNA) [GGUG] please.
a: 600

FYI, the data here is from paper PMC4551922.
